# protocol_notes: Stability of the compounds in aqueous solutions (HPLC residual content)
# Format: physicochemical
# measurement_conditions: water
Structures can show the parent of a compound that is named as a salt.
Each entry below lists one item and its recorded remaining at 120 h value.
endpoint_label: remaining at 120 h (%)

- compound: "N=C(N)NCCCCCCC(=O)N[C@@H](CC(=O)O)C(=O)NCCCCNCCCN [Compound 10, trihydrochloride]"
  readout_number: 99.8
- compound: "N=C(N)NCCCCCCC(=O)N[C@@H](CCCNC(=N)N)C(=O)NCCCCNCCCN [Compound 12, trihydrochloride]"
  readout_number: 100
- compound: "N=C(N)NCCCCCCC(=O)NC(CCO)C(=O)NCCCCNCCCN (racemic)"
  readout_number: 99.7
- compound: "CC(=O)O[C@@H](CCCCNC(=N)N)CC(=O)NCC(=O)NCCCCNCCCN [Compound 16, trihydrochloride]"
  readout_number: 99.6
- compound: "C[C@@H](O)[C@H](NC(=O)CCCCCCNC(=N)N)C(=O)NCCCCNCCCN [Compound 15, trihydrochloride]"
  readout_number: 99.6
- compound: "N=C(N)NCCCC[C@H](O)CC(=O)N[C@@H](CO)C(=O)NCCCCNCCCN [Compound 3, trihydrochloride]"
  readout_number: 99.7
- compound: "C[C@H](NC(=O)CCCCCCNC(=N)N)C(=O)NCCCCNCCCN [Compound 5, trihydrochloride]"
  readout_number: 99
- compound: "N=C(N)NCCCCCCC(=O)NCCCC(=O)NCCCCNCCCN [Compound 7, trihydrochloride]"
  readout_number: 100
- compound: "CC(C)C[C@H](NC(=O)CCCCCCNC(=N)N)C(=O)NCCCCNCCCN [Compound 9, trihydrochloride]"
  readout_number: 100
- compound: "N=C(N)NCCCCCCC(=O)N[C@@H](Cc1ccccc1)C(=O)NCCCCNCCCN [Compound 13, trihydrochloride]"
  readout_number: 101
- compound: "N=C(N)NCCCCCCC(=O)N1CCC[C@H]1C(=O)NCCCCNCCCN [Compound 8, trihydrochloride]"
  readout_number: 99.8
- compound: "Cl.Cl.Cl.N=C(N)NCCCCCCC(=O)N[C@@H](CO)C(=O)NCCCCNCCCN [Compound 2, trihydrochloride]"
  readout_number: 99.7
- compound: "N=C(N)NCCCCCCC(=O)N[C@H](CO)C(=O)NCCCCNCCCN [Compound 4, trihydrochloride]"
  readout_number: 99.6
- compound: "Cl.Cl.Cl.N=C(N)NCCCCCCC(=O)NCC(=O)NCCCCNCCCN [Compound 1, trihydrochloride]"
  readout_number: 99.8
- compound: "N=C(N)NCCCCCCC(=O)N[C@@H](Cc1cnc[nH]1)C(=O)NCCCCNCCCN [Compound 14, trihydrochloride]"
  readout_number: 99.9
- compound: "N=C(N)NCCCCCCCCC(=O)N[C@@H](CO)C(=O)NCCCCNCCCN [Compound 17, trihydrochloride]"
  readout_number: 100
- compound: "N=C(N)NCCCCCCC(=O)NCCC(=O)NCCCCNCCCN [Compound 6, trihydrochloride]"
  readout_number: 99.9

* * *

# protocol_notes: Stability of the compounds in aqueous solutions (HPLC residual content)
# Type: physicochemical
# measurement_conditions: water
Counter-ions that a name gives are not always drawn.
Each entry below lists one item and its recorded remaining at 168 h value.

- compound: "C[C@@H](O)[C@H](NC(=O)CCCCCCNC(=N)N)C(=O)NCCCCNCCCN [Compound 15, trihydrochloride]"
  remaining at 168 h: "100%"
- compound: "N=C(N)NCCCCCCC(=O)N[C@@H](CC(=O)O)C(=O)NCCCCNCCCN [Compound 10, trihydrochloride]"
  remaining at 168 h: "99.9%"
- compound: "N=C(N)NCCCCCCC(=O)N[C@@H](Cc1cnc[nH]1)C(=O)NCCCCNCCCN [Compound 14, trihydrochloride]"
  remaining at 168 h: "99.6%"
- compound: "N=C(N)NCCCCCCC(=O)NCCCC(=O)NCCCCNCCCN [Compound 7, trihydrochloride]"
  remaining at 168 h: "99.8%"
- compound: "CC(=O)O[C@@H](CCCCNC(=N)N)CC(=O)NCC(=O)NCCCCNCCCN [Compound 16, trihydrochloride]"
  remaining at 168 h: "99.6%"
- compound: "N=C(N)NCCCCCCC(=O)N1CCC[C@H]1C(=O)NCCCCNCCCN [Compound 8, trihydrochloride]"
  remaining at 168 h: "100%"
- compound: "N=C(N)NCCCCCCC(=O)NC(CCO)C(=O)NCCCCNCCCN (racemic)"
  remaining at 168 h: "99.5%"
- compound: "Cl.Cl.Cl.N=C(N)NCCCCCCC(=O)NCC(=O)NCCCCNCCCN [Compound 1, trihydrochloride]"
  remaining at 168 h: "99.9%"
- compound: "N=C(N)NCCCCCCC(=O)N[C@@H](Cc1ccccc1)C(=O)NCCCCNCCCN [Compound 13, trihydrochloride]"
  remaining at 168 h: "100%"
- compound: "N=C(N)NCCCCCCC(=O)N[C@@H](CCCNC(=N)N)C(=O)NCCCCNCCCN [Compound 12, trihydrochloride]"
  remaining at 168 h: "99.7%"
- compound: "C[C@H](NC(=O)CCCCCCNC(=N)N)C(=O)NCCCCNCCCN [Compound 5, trihydrochloride]"
  remaining at 168 h: "99.9%"
- compound: "N=C(N)NCCCCCCC(=O)NCCC(=O)NCCCCNCCCN [Compound 6, trihydrochloride]"
  remaining at 168 h: "100%"
- compound: "N=C(N)NCCCCCCCCC(=O)N[C@@H](CO)C(=O)NCCCCNCCCN [Compound 17, trihydrochloride]"
  remaining at 168 h: "99.3%"
- compound: "Cl.Cl.Cl.N=C(N)NCCCCCCC(=O)N[C@@H](CO)C(=O)NCCCCNCCCN [Compound 2, trihydrochloride]"
  remaining at 168 h: "99.8%"
- compound: "N=C(N)NCCCC[C@H](O)CC(=O)N[C@@H](CO)C(=O)NCCCCNCCCN [Compound 3, trihydrochloride]"
  remaining at 168 h: "100%"
- compound: "N=C(N)NCCCCCCC(=O)N[C@H](CO)C(=O)NCCCCNCCCN [Compound 4, trihydrochloride]"
  remaining at 168 h: "100%"
- compound: "CC(C)C[C@H](NC(=O)CCCCCCNC(=N)N)C(=O)NCCCCNCCCN [Compound 9, trihydrochloride]"
  remaining at 168 h: "99.9%"
